Tested on: PmTbr T-box DNA-binding domain (GST fusion);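 also: 200 nM protein in PBS on universal arrays averaged over duplicate arrays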
Sequence: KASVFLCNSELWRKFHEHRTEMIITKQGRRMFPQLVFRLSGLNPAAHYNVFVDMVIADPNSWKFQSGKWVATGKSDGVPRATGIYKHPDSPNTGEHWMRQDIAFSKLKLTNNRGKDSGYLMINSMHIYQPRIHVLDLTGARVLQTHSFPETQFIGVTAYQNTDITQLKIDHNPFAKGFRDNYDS
Assay: PBM E-score of 8-mer (E-score (dimensionless, -0.5 to 0.5)); higher = stronger binding preference
Conditions: the construct has about 5 more residues each side
In all, about 33,000 sequences were measured (“E-score (dimensionless, -0.5 to 0.5)”: median about -0.049, highest 2% from about 0.37 on). The entries come from a sample that favours the highest values as a whole.
Think of 0.2 as a floor: if PBM E-score of 8-mer stands on it or above, it is TRUE; beneath it, FALSE.

# SEQUENCE_CODE, GROUP_LABEL
data = [
    ("AAGGTGTA", "TRUE"),
    ("CCGGTGTA", "FALSE"),
    ("CTGTGTTA", "FALSE"),
    ("CAGGTGTC", "TRUE"),
    ("AACTGATG", "FALSE"),
]

---

Test system: PmTbr T-box DNA-binding domain (GST fusion);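 also: 200 nM protein in PBS on universal arrays averaged over duplicate arrays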
Sequence: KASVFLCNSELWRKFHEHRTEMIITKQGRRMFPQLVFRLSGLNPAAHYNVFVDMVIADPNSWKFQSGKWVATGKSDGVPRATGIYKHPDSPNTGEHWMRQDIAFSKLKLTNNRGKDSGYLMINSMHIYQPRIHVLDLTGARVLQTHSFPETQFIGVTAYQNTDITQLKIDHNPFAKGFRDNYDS
Test: PBM E-score of 8-mer (E-score (dimensionless, -0.5 to 0.5)); higher = stronger binding preference
Conditions: target sequence: T-box / the construct has about 5 more residues each side
The full ranking holds about 33,000 sequences; the median of “E-score (dimensionless, -0.5 to 0.5)” is about -0.049, and the highest 2% start at about 0.37. This excerpt belongs to a sample that is enriched for the highest values.

# SEQUENCE_CODE, PBM E-score of 8-mer
data = [
    ("AAGGGTGA", 0.19),
    ("GACTTCTC", 0.148),
    ("AGTGTGTG", 0.338),
    ("AAAGGTCC", 0.011),
    ("ATAGTGTA", 0.0192),
    ("AATGATCG", -0.0804),
    ("AAAGTGAG", 0.219),
    ("AAAGTGTC", 0.421),
    ("ACGGCCTC", -0.166),
    ("CAAAGGTA", -0.133),
    ("GCACTAGC", 0.0942),
    ("AAAAGGTC", -0.0764),
    ("AAAGTGTG", 0.435),
    ("CAGGGTGC", 0.271),
    ("GCTCAATA", -0.0299),
    ("GGGTGTAA", 0.385),
    ("AAAGGTCA", -0.303),
    ("GCTCTGAC", -0.205),
    ("CACCTCAA", 0.395),
    ("CTGCCACA", 0.226),
    ("ATCGACAA", 0.222),
    ("CGTGACAG", 0.27),
    ("GTCCATGA", -0.052),
    ("ATAGTGTG", 0.393),
    ("CACCTTTC", 0.411),
    ("AAAGGTAA", -0.21),
    ("AATTCGCG", 0.303),
    ("AAGTTGGA", -0.0116),
    ("AGGGCCTC", -0.399),
    ("CACCTTTA", 0.404),
    ("GACGACAC", 0.305),
    ("AACCTTTC", -0.105),
    ("AGGTGTAC", 0.218),
    ("AACCTCAA", -0.113),
    ("ACGTGTCC", 0.0892),
    ("AACCTCAC", 0.219),
    ("AGGTGTAA", 0.476),
    ("AAGGACTT", -0.228),
    ("ATTATGCG", -0.162),
    ("CACCTCAC", 0.45),
    ("GCATCTGA", -0.0824),
    ("ATGACCAG", -0.119),
    ("ATCAAGCC", -0.0171),
    ("AAAGGTGT", 0.478),
    ("AGATGTTG", 0.0167),
    ("AGGTGTTC", 0.409),
    ("CTTTCACA", 0.444),
    ("AAGGGTGT", 0.399),
    ("ATCGACAG", 0.236),
    ("AGGCACGG", -0.0977),
    ("CTCCTCAG", -0.0996),
    ("CAAAGGTC", -0.13),
    ("AGTGACAT", 0.309),
    ("ACCTACTG", 0.0087),
    ("GGGTGTAC", -0.0259),
    ("AAAGTGGT", 0.106),
    ("ACCTTTAT", 0.0337),
    ("ATGCCCAC", -0.186),
    ("AGCTGTTG", 0.244),
    ("GTCGACAA", 0.295),
    ("ACAATCTA", -0.0816),
    ("GTATCCAC", 0.0223),
    ("TGGTGTAA", 0.28),
    ("AGGTGTAT", 0.328),
    ("CTTTCGCA", 0.411),
    ("TACCTCAA", -0.132),
    ("AAAGGTAC", -0.152),
    ("ACCGACTC", -0.012),
    ("AAAGGTAT", -0.0701),
]

---

Test system: PmTbr T-box DNA-binding domain (GST fusion);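 also: 200 nM protein in PBS on universal arrays averaged over duplicate arrays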
Sequence: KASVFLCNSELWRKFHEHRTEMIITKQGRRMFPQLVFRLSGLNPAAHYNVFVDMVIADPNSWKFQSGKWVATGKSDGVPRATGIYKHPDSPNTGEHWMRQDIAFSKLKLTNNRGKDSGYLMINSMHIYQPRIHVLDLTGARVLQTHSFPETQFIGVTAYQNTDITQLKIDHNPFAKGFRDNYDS
Experiment: PBM E-score of 8-mer (E-score (dimensionless, -0.5 to 0.5)); Tbr is Tbrain of the sea star Patiria miniata (Pm) or the sea urchin Strongylocentrotus purpuratus (Sp); higher = stronger binding preference
Details: target sequence: T-box / the construct has about 5 more residues each side
The full ranking holds about 33,000 sequences; the median of “E-score (dimensionless, -0.5 to 0.5)” is about -0.049, and the highest 2% start at about 0.37. Shown is part of a subset that was picked to be rich in the highest values.
PBM E-score of 8-mer values by entry

# SEQUENCE_CODE, MEASURED_ON, PBM E-score of 8-mer
records = [
    ("ACACTTTC", "PmTbr T-box DNA-binding domain (GST fusion)", 0.408),
    ("TACACCGA", "PmTbr T-box DNA-binding domain (GST fusion)", 0.042),
    ("GTCCAGGA", "PmTbr T-box DNA-binding domain (GST fusion)", -0.195),
    ("ATGGTGAC", "PmTbr T-box DNA-binding domain (GST fusion)", 0.262),
    ("AACACATT", "PmTbr T-box DNA-binding domain (GST fusion)", 0.389),
    ("CCCAGAAC", "PmTbr T-box DNA-binding domain (GST fusion)", -0.157),
    ("GACCTACC", "PmTbr T-box DNA-binding domain (GST fusion)", -0.153),
    ("CCATTAAC", "PmTbr T-box DNA-binding domain (GST fusion)", 0.0966),
    ("TCTGAGAA", "PmTbr T-box DNA-binding domain (GST fusion)", -0.135),
    ("TACCTACA", "PmTbr T-box DNA-binding domain (GST fusion)", -0.297),
    ("GTCCAACA", "PmTbr T-box DNA-binding domain (GST fusion)", 0.198),
    ("ACGCCTGG", "PmTbr T-box DNA-binding domain (GST fusion)", 0.236),
    ("AACACACT", "PmTbr T-box DNA-binding domain (GST fusion)", 0.229),
    ("ATCGTCAC", "PmTbr T-box DNA-binding domain (GST fusion)", 0.403),
    ("CTAGTAAG", "PmTbr T-box DNA-binding domain (GST fusion)", -0.0596),
    ("CAGACCTG", "PmTbr T-box DNA-binding domain (GST fusion)", -0.0919),
    ("AGACTAGG", "PmTbr T-box DNA-binding domain (GST fusion)", -0.0553),
    ("TGGCTGAA", "PmTbr T-box DNA-binding domain (GST fusion)", -0.23),
    ("AAAACATT", "PmTbr T-box DNA-binding domain (GST fusion)", -0.0945),
    ("AACTGACG", "PmTbr T-box DNA-binding domain (GST fusion)", 0.102),
    ("TATCTACA", "PmTbr T-box DNA-binding domain (GST fusion)", -0.0338),
    ("CTTCTATC", "PmTbr T-box DNA-binding domain (GST fusion)", -0.198),
    ("ACAATGTC", "PmTbr T-box DNA-binding domain (GST fusion)", -0.048),
    ("GCTTGGTA", "PmTbr T-box DNA-binding domain (GST fusion)", -0.112),
    ("GTGTGAGA", "PmTbr T-box DNA-binding domain (GST fusion)", 0.458),
    ("ATAAGTGG", "PmTbr T-box DNA-binding domain (GST fusion)", 0.124),
    ("AGCCCCAG", "PmTbr T-box DNA-binding domain (GST fusion)", -0.138),
    ("CGTTCGCA", "PmTbr T-box DNA-binding domain (GST fusion)", 0.38),
    ("AGTGAGAT", "PmTbr T-box DNA-binding domain (GST fusion)", 0.287),
    ("ATACTTAA", "PmTbr T-box DNA-binding domain (GST fusion)", -0.187),
    ("AGTTCGCC", "PmTbr T-box DNA-binding domain (GST fusion)", 0.0555),
    ("GATTAGAC", "PmTbr T-box DNA-binding domain (GST fusion)", -0.0447),
    ("GCCACTAA", "PmTbr T-box DNA-binding domain (GST fusion)", 0.153),
    ("TATGATGA", "PmTbr T-box DNA-binding domain (GST fusion)", -0.156),
    ("CTCACATA", "PmTbr T-box DNA-binding domain (GST fusion)", 0.0666),
    ("CTCACATC", "PmTbr T-box DNA-binding domain (GST fusion)", 0.369),
    ("CCCACACA", "PmTbr T-box DNA-binding domain (GST fusion)", 0.17),
    ("AAATCTAG", "PmTbr T-box DNA-binding domain (GST fusion)", -0.091),
    ("ATTTTTGA", "PmTbr T-box DNA-binding domain (GST fusion)", -0.289),
    ("ATGGTGAG", "PmTbr T-box DNA-binding domain (GST fusion)", 0.223),
    ("CACACATC", "PmTbr T-box DNA-binding domain (GST fusion)", 0.381),
    ("AGTGAGAG", "PmTbr T-box DNA-binding domain (GST fusion)", 0.312),
    ("CGTTCGCC", "PmTbr T-box DNA-binding domain (GST fusion)", 0.0701),
    ("AAACTCTT", "PmTbr T-box DNA-binding domain (GST fusion)", -0.11),
    ("CGAGTTAG", "PmTbr T-box DNA-binding domain (GST fusion)", -0.0558),
    ("GCCACACA", "PmTbr T-box DNA-binding domain (GST fusion)", 0.279),
    ("GCACACTA", "PmTbr T-box DNA-binding domain (GST fusion)", 0.102),
    ("CTCGTCAC", "PmTbr T-box DNA-binding domain (GST fusion)", 0.394),
    ("GGTGAGAA", "PmTbr T-box DNA-binding domain (GST fusion)", 0.475),
    ("AGTGAGAA", "PmTbr T-box DNA-binding domain (GST fusion)", 0.421),
    ("CGCACACC", "PmTbr T-box DNA-binding domain (GST fusion)", 0.325),
    ("AACCCTGA", "PmTbr T-box DNA-binding domain (GST fusion)", -0.108),
    ("GGTGAGGA", "PmTbr T-box DNA-binding domain (GST fusion)", 0.364),
    ("ACCAAAAA", "PmTbr T-box DNA-binding domain (GST fusion)", -0.124),
    ("CAGGTAGC", "PmTbr T-box DNA-binding domain (GST fusion)", -0.062),
    ("CCCCTACG", "PmTbr T-box DNA-binding domain (GST fusion)", -0.0948),
    ("ATAATGCC", "PmTbr T-box DNA-binding domain (GST fusion)", -0.174),
    ("TACACCAA", "PmTbr T-box DNA-binding domain (GST fusion)", 0.0439),
    ("CAAGGGGC", "PmTbr T-box DNA-binding domain (GST fusion)", -0.095),
    ("ACACTTTG", "PmTbr T-box DNA-binding domain (GST fusion)", 0.404),
    ("CTCAGAGA", "PmTbr T-box DNA-binding domain (GST fusion)", -0.262),
    ("CACACCTG", "PmTbr T-box DNA-binding domain (GST fusion)", 0.478),
    ("ACTATGCC", "PmTbr T-box DNA-binding domain (GST fusion)", -0.0992),
    ("CCACTTTC", "PmTbr T-box DNA-binding domain (GST fusion)", 0.104),
    ("GACACATC", "PmTbr T-box DNA-binding domain (GST fusion)", 0.372),
    ("TAAGTCTA", "PmTbr T-box DNA-binding domain (GST fusion)", -0.0537),
    ("CACACACC", "PmTbr T-box DNA-binding domain (GST fusion)", 0.428),
    ("ACTCAGAC", "PmTbr T-box DNA-binding domain (GST fusion)", 0.0474),
    ("AACACCGG", "PmTbr T-box DNA-binding domain (GST fusion)", 0.155),
]
